- Assayed target: P2X purinoceptor 3 (Homo sapiens)
- Sequence (P56373 whole entry): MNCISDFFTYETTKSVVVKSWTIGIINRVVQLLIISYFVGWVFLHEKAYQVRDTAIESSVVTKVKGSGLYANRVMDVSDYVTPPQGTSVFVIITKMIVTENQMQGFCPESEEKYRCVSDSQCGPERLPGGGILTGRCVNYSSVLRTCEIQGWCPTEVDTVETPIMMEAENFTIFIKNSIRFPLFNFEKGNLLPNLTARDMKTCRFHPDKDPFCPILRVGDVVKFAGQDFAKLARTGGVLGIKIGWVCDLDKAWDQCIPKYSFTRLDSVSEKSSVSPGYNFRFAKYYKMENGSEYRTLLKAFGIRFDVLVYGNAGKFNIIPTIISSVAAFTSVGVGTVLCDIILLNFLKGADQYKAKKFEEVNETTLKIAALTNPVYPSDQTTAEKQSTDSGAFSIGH
- Protocol details: Antagonist activity at human P2X3R transfected in human 1321N1 cells assessed as inhibition of ATP-induced calcium influx
Kindly supply the reported IC50 values for the records listed here.
Answers are plain numbers, in µM.

| Molecule | Measured attribute | Reading |
| --- | --- | --- |
| Nc1ncnc2c1ncn2[C@@H]1O[C@H](COP(=O)(O)OP(=O)(O)OP(=O)(O)O)[C@H]2O[C@@H](c3ccccc3)O[C@H]21 | IC50 | 0.611 |

GET /value?item= Nc1ncnc2c1ncn2[C@@H]1O[C@H](COP(=O)(O)OP(=O)(O)OP(=O)(O)O)[C@H]2O[C@H](c3ccccc3)O[C@H]21 &field=IC50 returns 5.83

* * *

- Assayed target: P2X purinoceptor 3 (Mus musculus, UniProt Q3UR32)
- Sequence (Q3UR32 whole entry): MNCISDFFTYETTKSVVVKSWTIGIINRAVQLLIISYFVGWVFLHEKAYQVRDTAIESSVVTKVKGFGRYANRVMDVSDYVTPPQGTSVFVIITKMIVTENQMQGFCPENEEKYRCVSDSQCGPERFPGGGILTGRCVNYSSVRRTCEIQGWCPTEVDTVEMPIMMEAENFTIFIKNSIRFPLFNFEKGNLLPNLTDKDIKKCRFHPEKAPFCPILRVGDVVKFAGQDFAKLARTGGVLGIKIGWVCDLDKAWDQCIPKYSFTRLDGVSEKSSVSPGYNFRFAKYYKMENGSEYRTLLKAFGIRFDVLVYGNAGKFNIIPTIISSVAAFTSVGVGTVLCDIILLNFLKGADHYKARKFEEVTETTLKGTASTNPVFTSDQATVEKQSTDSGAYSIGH
- Protocol details: Antagonist activity at P2X3R in mouse TG sensory neurons assessed as inhibition of P2X3R agonist alpha,beta-meATP-induced current at -65 mV holding potential by whole cell voltage clamp method
API: label(entry) gives Condition met if the entry's IC50 is strictly smaller than 100 nM; on equality or larger values it gives Condition not met.

Prompt: Does the reported IC50 of Nc1ncnc2c1ncn2[C@@H]1O[C@H](COP(=O)(O)OP(=O)(O)OP(=O)(O)O)[C@H]2OCO[C@H]21 stay below 100 nM?
Response: Condition not met

Prompt: Does the reported IC50 of Nc1ncnc2c1ncn2[C@@H]1O[C@H](COP(=O)(O)OP(=O)(O)OP(=O)(O)O)[C@H]2OC3(CCCCC3)O[C@H]21 stay below 100 nM?
Response: Condition met

Prompt: Does the reported IC50 of Nc1ncnc2c1ncn2[C@@H]1O[C@H](COP(=O)(O)CP(=O)(O)OP(=O)(O)O)[C@H]2OC3(CCCCC3)O[C@H]21 stay below 100 nM?
Response: Condition not met

Prompt: Does the reported IC50 of Nc1ncnc2c1ncn2[C@@H]1O[C@H](COP(=O)(O)OP(=O)(O)OP(=O)(O)O)[C@H]2O[C@@H](c3ccccc3)O[C@H]21 stay below 100 nM?
Response: Condition met

Prompt: Does the reported IC50 of Nc1ncnc2c1ncn2[C@@H]1O[C@H](COP(=O)(O)OP(=O)(O)OP(=O)(O)O)[C@H]2O[C@H](c3ccccc3)O[C@H]21 stay below 100 nM?
Response: Condition not met

Prompt: Does the reported IC50 of CC1(C)O[C@@H]2[C@H](O1)[C@@H](COP(=O)(O)OP(=O)(O)OP(=O)(O)O)O[C@H]2n1cnc2c(N)ncnc21 stay below 100 nM?
Response: Condition met

Values were extracted from ChEMBL document CHEMBL4433213.
